target: T1, serum purified human Complement Factor D (human, UniProt P00746 26-253); test: SPR Biacore, antibody on protein A chip, single cycle kinetics, 37 C;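 note: antibodies captured on the protein A surface to roughly 70 RU in HBS-EP+ buffer, with rate and affinity constants fitted using BIAevaluation software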
T1 construct: Serum purified protein flowed over the captured antibodies; also called CFD; human CFD
T1 sequence (P00746 26-253): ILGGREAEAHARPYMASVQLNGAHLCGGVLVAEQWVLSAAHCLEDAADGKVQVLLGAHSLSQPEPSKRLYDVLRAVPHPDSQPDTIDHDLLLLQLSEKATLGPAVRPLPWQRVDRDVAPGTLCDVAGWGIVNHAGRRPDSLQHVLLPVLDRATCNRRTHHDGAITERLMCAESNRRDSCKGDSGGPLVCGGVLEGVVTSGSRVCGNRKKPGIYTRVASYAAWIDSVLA
recorded endpoint: koff (s⁻¹)
Give the quantity in s⁻¹, number only.

Lookup: What does the data say about its koff? Entry: 34I54I59D84S / 54R101V (antibody, human IgG1, V domains shown, Human IgG1 kappa; also called OG1965) VH: EVQLVESGGGLVQPGGSLRLSCAASGYTFTDYYINWVRQAPGKGLEWIGDINPITGDTDYNADFKRRFTFSLDTSKSTAYLQMSSLRAEDTAVYYCTREGPSFAYWGQGTLVTVSS VL: DIQLTQSPSSLSASVGDRVTITCRSSQTIVHSNGDTYLEWYQQKPGKAPNLLIRKVSNRFSGVPSRFSGSGSGTDFTLTISSLQPEDFATYYCFQGSHVPVTFGQGTKVEIKR
Found: 0.000202

Lookup: What does the data say about its koff? Entry: 54V59D / 32D60W101V (antibody, V domains shown, KCD119 TAF variant; full antibody captured on protein A) VH: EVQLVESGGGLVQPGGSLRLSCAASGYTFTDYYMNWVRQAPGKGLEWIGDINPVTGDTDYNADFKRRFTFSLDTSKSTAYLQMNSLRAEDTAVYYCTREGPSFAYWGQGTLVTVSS VL: DIQLTQSPSSLSASVGDRVTITCRSSQTIVHDNGDTYLEWYQQKPGKAPNLLIYKVSNRWSGVPSRFSGSGSGTDFTLTISSLQPEDFATYYCFQGSHVPVTFGQGTKVEIK
Found: 0.000371
